Biological target: Induced myeloid leukemia cell differentiation protein Mcl-1 (Homo sapiens)
Sequence (Q07820 whole entry): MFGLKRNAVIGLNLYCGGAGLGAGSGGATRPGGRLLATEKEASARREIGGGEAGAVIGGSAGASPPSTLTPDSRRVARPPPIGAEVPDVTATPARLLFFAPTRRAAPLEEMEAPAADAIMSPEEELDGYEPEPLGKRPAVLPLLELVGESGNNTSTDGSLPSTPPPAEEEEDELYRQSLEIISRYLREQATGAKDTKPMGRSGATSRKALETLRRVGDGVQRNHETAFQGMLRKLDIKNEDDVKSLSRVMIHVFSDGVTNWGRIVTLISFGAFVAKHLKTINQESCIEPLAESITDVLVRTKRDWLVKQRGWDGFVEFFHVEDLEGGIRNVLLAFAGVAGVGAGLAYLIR
Assay type: functional
The source made the active and inactive calls.
Experimental readout: IC50

Worked examples follow.
Molecule	IC50
Cc1sccc1/C=N/NC(=O)c1cccc2ccccc12	21.1 µM (not active)
O=C(CSc1nnc(O)nc1O)Nc1ccc2c(c1)C(=O)c1ccccc1C2=O	1.68 µM (not active)
CN(C)c1ccc(NC(=O)c2cn(-c3ccccc3)nc2-c2cccs2)cc1	2.48 µM (not active)

## Task Field request: IC50 | item: Cc1ccc(/N=C2N=C(O)/C(=C/C=C/c3ccco3)S\2)cc1C
## Result 13.4 µM (active)

## Task Fill in the blank: the reported IC50 of Cc1[nH]c2ccccc2c1/C=C/c1nc2ccccc2c(=O)[nH]1 is ____.
## Result 5.55 µM (active)

## Task Endpoint output: IC50 of CCOC(=O)c1c(C)oc2c1c(C(c1cccnc1)N1CCOCC1)c(O)c1ccccc12 (stereo unspecified) . Value?
## Result 1.17 µM (active)

----------
A set of compounds tested on Glyceraldehyde-3-phosphate dehydrogenase (Homo sapiens, UniProt P04406), with measured IC50:

Look over these answered cases.
Smiles input	Experimental readout	Experimental value
CS(=O)(=O)c1nc(-c2ccc3ccccc3c2)cc(C(F)(F)F)n1	IC50	> 100 µM (not active)
Cc1cccc(N2C(=O)C(Cl)=C(N3CCN[C@H](C)C3)C2=O)c1	IC50	> 50 µM (inconclusive)
Cc1ccccc1Cn1c(=O)n(-c2ccccc2)c(=O)n([C@@H](C)C(N)=O)c1=O	IC50	> 100 µM (not active)

## Task I'm curious: which IC50 was measured for COc1cc(/C=C2/SC(=S)NC2=O)cc(Cl)c1OCc1cccc2ccccc12 tested on Glyceraldehyde-3-phosphate dehydrogenase (Homo sapiens, UniProt P04406)?
## Result > 100 µM (not active)

----------
Experiment: control 3'UTR Renilla luciferase suppression, dose response, counter-screen for Shn3 inhibitor project, cell-based, Clone20-Shn3RL, cherry-picked (AID 624133)
Format: functional
The source made the active and inactive calls.
Experimental readout: AC50

Molecule	Experimental readout	Experimental value
O=[N+]([O-])c1c(NCCCO)cc(Sc2ccc(Cl)cc2)c2nonc12	AC50	12.7 µM (active)
CC[C@H](C)[C@H]1O[C@]2(CC[C@@H]1C)C[C@@H]1C[C@@H](CC=C(C)[C@@H](O[C@H]3C[C@H](OC)[C@@H](O[C@H]4C[C@H](OC)[C@@H](O)[C@H](C)O4)[C@H](C)O3)[C@@H](C)C=CC=C3CO[C@@H]4[C@H](O)C(C)=C[C@@H](C(=O)O1)[C@]34O)O2	AC50	20.3 µM (active)
Fc1ccc2[nH]c3c(N4CCSCC4)ncnc3c2c1	AC50	2.6 µM (active)
CCN(CC)S(=O)(=O)c1cccc(NC(=O)CNc2cccc(S(=O)(=O)N3CCCC3)c2)c1	AC50	33.8 µM (active)

Next up:
## Task I have this molecule here, Oc1c(C(c2ccccc2Cl)N2CCCC2)ccc2cccnc12 (stereo not given) , and I need its recorded AC50.
## Result 6.38 µM (active)

----------
Experiment: Luminescence Cell-Based Dose Response HTS to Identify Inhibitors of 5'UTR Stem-Loop Driven Prion Protein mRNA Translation in H4 Neuroglioblastoma Cells. [Related pubchem assays: 1827 (Project Summary), 1813 (Primary HTS)]
Assay type: functional
The source made the active and inactive calls.
Experimental readout: EC50

Some molecules with known EC50 results, for comparison:
Molecule	EC50
O=C(Nc1ccc(-c2nc3cc(NC(=O)c4cccs4)ccc3[nH]2)cc1)c1cccs1	40.1 µM (active)
N#Cc1c(N2CCOCC2)nc(-c2ccco2)c2c1CCCC2	18.5 µM (active)
CCO/C(O)=C1\C(C)=Nc2nc3ccccc3n2C1c1ccncc1 (centres undefined)	> 120 µM (not active)

Shift focus to the following entry.
## Task Value lookup for EC50; key = COc1c(C)c2c(c(O)c1C/C=C(\C)CCC(=O)O)C(=O)OC2
## Result 0.116 µM (active)
